# System: 996289-038-R-J1-PDC complex spheroid viability
# test: Anticancer human tumor 996289-038-R-J1-PDC patient-derived colon adenocarcinoma cell line growth inhibition [CLK]; active = viability on the fitted dose curve at most 10% of control; inactive = the rest
# experimental parameters: second compound 1 µM; first compound 1 µM
Possible outcomes: active, inactive

{"columns": ["compound", "label value"],
 "data": [
  ["C=C(F)C(=O)N1CCN(c2nc(OCC3CCCN3C)nc3c2CCN(c2cccc4cccc(Cl)c24)C3)CC1CC#N (stereo not given) + CN1CCN(c2cc(C(=O)Nc3cc4cc(-c5cnn(C)c5)ccc4cn3)ccn2)CC1", "active"],
  ["COc1c(OCCCN2CCOCC2)ccc2c3n(c(=NC(=O)c4cnc(N)nc4)nc12)CCN3 + CNC(=O)c1ccc(Nc2nc(OC3CCCC3)c3c(-c4ccc5nc(C)oc5c4)c[nH]c3n2)c(OC)c1", "inactive"],
  ["CC(CO)NC(=O)c1cc(-c2ccc(Cl)cc2)nn(-c2cnn(C)c2)c1=O (stereo not given) + CNC(=O)c1ccc(Nc2nc(OC3CCCC3)c3c(-c4ccc5nc(C)oc5c4)c[nH]c3n2)c(OC)c1", "inactive"],
  ["CCc1c2c(nc3ccc(O)cc13)-c1cc3c(c(=O)n1C2)COC(=O)[C@]3(O)CC + CN1CCN(c2cc(C(=O)Nc3cc4cc(-c5cnn(C)c5)ccc4cn3)ccn2)CC1", "active"],
  ["Nc1ccccc1NC(=O)c1ccc(CNC(=O)OCc2cccnc2)cc1 + CN1CCN(c2cc(C(=O)Nc3cc4cc(-c5cnn(C)c5)ccc4cn3)ccn2)CC1", "active"]
]}

---

# Test system: 996289-038-R-J1-PDC complex spheroid viability
# test: Anticancer human tumor 996289-038-R-J1-PDC cell line growth inhibition [CLK];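 also: spheroids exposed to the agents for 7 days before readout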
# experimental parameters: second compound 0.316 µM; first compound 0.316 µM; active compounds read low
Mark satisfied for viability, T/C under 50%, not satisfied if at or over.

{"columns": ["molecule", "label value"],
 "data": [
  ["CC(Nc1ccc2c(c1)OCCn1cc(N3C(=O)OCC3C(F)F)nc1-2)C(N)=O (configuration not stated) + CN1CCN(c2cc(C(=O)Nc3cc4cc(-c5cnn(C)c5)ccc4cn3)ccn2)CC1", "satisfied"],
  ["CC(=O)O[C@H]1C(=O)[C@@]2(C)[C@H]([C@H](OC(=O)c3ccccc3)[C@]3(O)C[C@H](OC(=O)[C@H](O)[C@@H](NC(=O)c4ccccc4)c4ccccc4)C(C)=C1C3(C)C)[C@]1(OC(C)=O)CO[C@@H]1C[C@@H]2O + CN1CCN(c2cc(C(=O)Nc3cc4cc(-c5cnn(C)c5)ccc4cn3)ccn2)CC1", "satisfied"],
  ["CC1(C)CCC(CN2CCN(c3ccc(C(=O)NS(=O)(=O)c4ccc(NCC5CCOCC5)c([N+](=O)[O-])c4)c(Oc4cnc5[nH]ccc5c4)c3)CC2)=C(c2ccc(Cl)cc2)C1 + CNC(=O)c1ccc(Nc2nc(OC3CCCC3)c3c(-c4ccc5nc(C)oc5c4)c[nH]c3n2)c(OC)c1", "not satisfied"],
  ["CCN1CCN(Cc2ccc(Nc3ncc(F)c(-c4cc(F)c5nc(C)n(C(C)C)c5c4)n3)nc2)CC1 + CNC(=O)c1ccc(Nc2nc(OC3CCCC3)c3c(-c4ccc5nc(C)oc5c4)c[nH]c3n2)c(OC)c1", "not satisfied"],
  ["C=C(F)C(=O)N1CCN(c2nc(OCC3CCCN3C)nc3c2CCN(c2cccc4cccc(Cl)c24)C3)CC1CC#N (configuration not stated) + CN1CCN(c2cc(C(=O)Nc3cc4cc(-c5cnn(C)c5)ccc4cn3)ccn2)CC1", "not satisfied"],
  ["CCc1c2c(nc3ccc(O)cc13)-c1cc3c(c(=O)n1C2)COC(=O)[C@]3(O)CC + CNC(=O)c1ccc(Nc2nc(OC3CCCC3)c3c(-c4ccc5nc(C)oc5c4)c[nH]c3n2)c(OC)c1", "satisfied"],
  ["CCCS(=O)(=O)Nc1ccc(F)c(C(=O)c2c[nH]c3ncc(-c4ccc(Cl)cc4)cc23)c1F + CN1CCN(c2cc(C(=O)Nc3cc4cc(-c5cnn(C)c5)ccc4cn3)ccn2)CC1", "not satisfied"]
]}
